src = patent US9980943B2

Overview of reported CMV-LACZ in Myotubes, signal relative to DMSO across a group of molecules:
Tested on: β-galactosidase in CMV-LacZ C2C12 myotubes
Experiment: CMV-LacZ secondary screen in C2C12 myotubes (β-Gal stabilizing assay)
Type: cell-based, mouse
Details: 40 uM; C2C12 CMV-LacZ myotubes; fold relative to DMSO
ENDPOINT: CMV-LACZ in Myotubes, signal relative to DMSO

QUERY_SMILES | OBS_VALUE
Cn1c(O)c(C(C#N)=C2N=c3ccccc3=N2)c2ccccc21 | 1.0233
O=c1[nH]c(CN2CCCCC2)nc2c1C1(CCCCC1)Cc1ccccc1-2 | 1.1976
CCCCNC(=O)CSc1nnc(Cc2ccc(Cl)c(Cl)c2)c(=O)[nH]1 | 1.1
COC(=O)c1ccccc1NC(=O)c1cc[n+]([O-])cc1 | 1.103
O=C(Nc1ccc(Oc2cccnc2)cc1)c1ccccc1Cl | 1.0095

----------
Overview of reported CMV-LACZ in Myoblasts (β-galactosidase activity relative to DMSO) across a group of compounds:
Tested on: β-galactosidase in CMV-LacZ C2C12 myoblasts
Assay: CMV-LacZ secondary screen in C2C12 myoblasts (β-Gal stabilizing assay)
Type: cell-based, mouse
Conditions: 5 uM; CMV-LacZ C2C12 myoblasts
ENDPOINT: CMV-LACZ in Myoblasts (β-galactosidase activity relative to DMSO)

COMPOUND | TARGET_OF_ASSAY | OBS_VALUE
Cc1ccccc1S(=O)(=O)N1C[C@H]2CON(C)[C@H]2C[C@H]1c1cccc(-c2ccccc2)c1 | β-galactosidase in CMV-LacZ C2C12 myoblasts | 0.7616
CCOC(=O)C1=C(CC)Nc2ccccc2N=C1NC(=O)c1ccc(OC)c(S(=O)(=O)N2CCCCC2C)c1 (centres unmarked) | β-galactosidase in CMV-LacZ C2C12 myoblasts | 0.8929
CCOc1ccccc1Nc1cc2n(c(=O)n1)CCc1cc(OC)c(OC)cc1-2 | β-galactosidase in CMV-LacZ C2C12 myoblasts | 0.8138
Cc1nnc(SCC(=O)c2ccc(Br)cc2)s1 | β-galactosidase in CMV-LacZ C2C12 myoblasts | 0.8414
COc1ccc(N=Nc2ccc(N)nc2N)cc1 | β-galactosidase in CMV-LacZ C2C12 myoblasts | 1.0269
Cc1[nH]c(=O)[nH]c(=O)c1S(=O)(=O)Nc1ccc(F)cc1Cl | β-galactosidase in CMV-LacZ C2C12 myoblasts | 0.9489
CC(=O)Nc1ccc(NC(=O)c2cc(=O)c3cc(C)cc(C)c3o2)cc1 | β-galactosidase in CMV-LacZ C2C12 myoblasts | 1.0212
CCCCN(CC)Cc1ccc(CNC(=S)Nc2ccccc2F)o1 | β-galactosidase in CMV-LacZ C2C12 myoblasts | 0.8060

----------
System: α7 integrin (LacZ reporter in α7+/LacZ myotubes)
Experiment: Myotube α7 integrin FDG assay (Burkin assay in myotubes, 96-well)
Format: cell-based, mouse
Conditions: 10 uM, myotubes
Categories are defined by ranges of Burkin Assay in Myotubes (signal relative to DMSO), namely range 1 = under 0.9, range 2 = from 0.9 up to 1, range 3 = 1 and over

QUERY_SMILES | TARGET_OF_ASSAY | CLASS_ASSIGNMENT
NS(=O)(=O)c1ccc(NC(=O)c2cc(-c3ccccc3O)n[nH]2)cc1 | α7 integrin (LacZ reporter in α7+/LacZ myotubes) | range 3
COc1ccc(S(=O)(=O)N2CCN(C(=O)C3CCC3)CC2)cc1 | α7 integrin (LacZ reporter in α7+/LacZ myotubes) | range 2
CC(=O)Nc1c(-c2ccc(Cl)cc2)c(=O)c2ccccc2n1C | α7 integrin (LacZ reporter in α7+/LacZ myotubes) | range 2
Cc1cc(-c2ccccc2)n2nc(N)nc2n1 | α7 integrin (LacZ reporter in α7+/LacZ myotubes) | range 1
COc1cc(CNCc2ccc(C(=O)O)cc2)ccc1OCc1ccc(F)cc1.Cl | α7 integrin (LacZ reporter in α7+/LacZ myotubes) | range 2
Cc1ccc(-c2csc(Nc3ccc(C(=O)O)cc3)[n+]2Cc2ccccc2)cc1 | α7 integrin (LacZ reporter in α7+/LacZ myotubes) | range 2
